All figures here come from patent US11053230B2.

- system: IDO1 (Homo sapiens)
- Construct: Recombinant full-length IDO1 (Seegers, N., et al.) and all other assay components were diluted in IDO1 reaction buffer; made in house
- test details: Biochemical IDO1 assay (NFK GreenScreen)
- condition details: stated in the synthesis examples; assay not named
- Excerpt: Inhibition of IDO1 activity can be measured by determining the enzymatic conversion of L-tryptophan into N-formylkynurenine (NFK) in a reaction mixture containing IDO1 and test compound. The formation of NFK can be detected directly by, for instance, high-performance liquid chromatography (HPLC) methods, or by intrinsic fluorescence. […]
measurement label: relative activity of the separated isomers

>>> reported_result("C[C@@H](c1ccccc1)N1CC(=O)N(O)C1c1cc(Br)cs1 (single isomer, unassigned) [Example 118a]")
"less active isomer"
>>> reported_result("O=C1CN(C(=O)c2c(F)cccc2F)C(c2cc(Br)cs2)N1O (single isomer, unassigned) [Example 48a]")
"less active isomer"
>>> reported_result("C[C@@H](c1ccccc1)N1CC(=O)N(O)C1c1cc(Br)cs1 (single isomer, unassigned) [Example 118b]")
"most active isomer"
>>> reported_result("O=C1CN(C(=O)c2c(F)cccc2F)C(c2csc(Br)c2)N1O (single isomer, unassigned) [Example 46a]")
"less active isomer"
>>> reported_result("C[C@@H](c1ccccc1)N1CC(=O)N(O)C1c1csc(Br)c1 (single isomer, unassigned) [Example 121b]")
"most active isomer"

Problem: Name the recorded relative activity of the separated isomers of the item O=C1CN(C(=O)c2c(F)cccc2F)C(c2ccc(Br)s2)N1O (single isomer, unassigned) [Example 49b] in your answer.
Solution: most active isomer

Problem: Kindly indicate its recorded relative activity of the separated isomers. Item: O=C1CN(C(=O)c2c(F)cc(C#CC3CC3)cc2F)C(c2cc(Br)cs2)N1O (single isomer, unassigned) [Example 47a]
Solution: less active isomer

Problem: Give me measured relative activity of the separated isomers, please, for this compound: O=C1CN(C(=O)c2c(F)cccc2F)C(c2cc(Br)c(F)s2)N1O (single isomer, unassigned) [Example 110a]
Solution: most active isomer

----------
- system: IDO1 (Homo sapiens)
- Construct: Recombinant full-length IDO1 (Seegers, N., et al.) and all other assay components were diluted in IDO1 reaction buffer; made in house
- test details: Biochemical IDO1 assay (NFK GreenScreen)
- condition details: stated in the synthesis examples; assay not named
measurement label: relative activity of the separated isomers

Study these solved cases before continuing.
>>> reported_result("C[C@@H](c1ccccc1)N1CC(=O)N(O)C1c1ccc(Br)s1 (single isomer, unassigned) [Example 120b]")
"most active isomer"
>>> reported_result("O=C1CN(C(=O)c2c(F)cccc2F)C(c2cc(Br)c(F)s2)N1O (single isomer, unassigned) [Example 110b]")
"less active isomer"
>>> reported_result("C[C@@H](c1ccccc1)N1CC(=O)N(O)C1c1cc(I)cs1 (single isomer, unassigned) [Example 119b]")
"most active isomer"
>>> reported_result("O=C1CN(C(=O)c2c(F)cccc2F)C(c2csc(Br)c2)N1O (single isomer, unassigned) [Example 46b]")
"most active isomer"
>>> reported_result("C[C@@H](c1ccccc1)N1CC(=O)N(O)C1c1csc(Br)c1 (single isomer, unassigned) [Example 121a]")
"less active isomer"
>>> reported_result("C[C@@H](c1ccccc1)N1CC(=O)N(O)C1c1ccc(Br)s1 (single isomer, unassigned) [Example 120a]")
"less active isomer"

Next up:
Problem: Quick one: give measured relative activity of the separated isomers for O=C1CN(C(=O)c2c(F)cc(C#CC3CC3)cc2F)C(c2cc(Br)cs2)N1O (single isomer, unassigned) [Example 47b]
Solution: most active isomer

----------
- system: IDO1 (Homo sapiens, UniProt P14902)
- Construct: Recombinant full-length IDO1 (Seegers, N., et al.) and all other assay components were diluted in IDO1 reaction buffer; made in house
- Sequence (P14902 whole entry): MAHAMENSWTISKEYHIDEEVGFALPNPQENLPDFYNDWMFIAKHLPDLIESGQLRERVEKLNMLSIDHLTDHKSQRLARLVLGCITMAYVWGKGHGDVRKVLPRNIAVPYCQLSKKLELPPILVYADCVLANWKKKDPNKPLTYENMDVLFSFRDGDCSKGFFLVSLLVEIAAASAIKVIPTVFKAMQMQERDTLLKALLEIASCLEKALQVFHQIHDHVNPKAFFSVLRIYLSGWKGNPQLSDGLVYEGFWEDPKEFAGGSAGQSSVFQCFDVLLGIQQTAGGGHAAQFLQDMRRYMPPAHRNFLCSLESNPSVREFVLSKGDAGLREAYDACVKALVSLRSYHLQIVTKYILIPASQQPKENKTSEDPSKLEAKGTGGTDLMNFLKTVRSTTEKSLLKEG
- test details: Biochemical IDO1 assay (NFK GreenScreen)
- condition details: stated in the synthesis examples; assay not named
measurement label: relative activity of the separated isomers

Look over these answered cases.
>>> reported_result("O=C1CN(Cc2c(F)cccc2F)C(c2cc(Br)cs2)N1O (single isomer, unassigned) [Example 45a]")
"less active isomer"
>>> reported_result("O=C1CN(C(=O)c2c(F)cccc2F)C(c2ccc(Br)s2)N1O (single isomer, unassigned) [Example 49a]")
"less active isomer"
>>> reported_result("O=C1CN(C(=O)c2c(F)cccc2F)C(c2cc(Br)cs2)N1O (single isomer, unassigned) [Example 48b]")
"most active isomer"
>>> reported_result("C[C@@H](c1ccccc1)N1CC(=O)N(O)C1c1cc(I)cs1 (single isomer, unassigned) [Example 119a]")
"less active isomer"

Problem: Give the measured relative activity of the separated isomers for O=C1CN(Cc2c(F)cccc2F)C(c2cc(Br)cs2)N1O (single isomer, unassigned) [Example 45b]
Solution: most active isomer
